IC50 values, listed per item
Molecular target: human 11β-HSD1 enzyme (Homo sapiens)
Construct: stably transfected with a construct containing the full-length gene coding for the human 11β-HSD1 enzyme; expressed in transfected cells; HEK293/11β-HSD1 cells)
Sequence (P28845 whole entry): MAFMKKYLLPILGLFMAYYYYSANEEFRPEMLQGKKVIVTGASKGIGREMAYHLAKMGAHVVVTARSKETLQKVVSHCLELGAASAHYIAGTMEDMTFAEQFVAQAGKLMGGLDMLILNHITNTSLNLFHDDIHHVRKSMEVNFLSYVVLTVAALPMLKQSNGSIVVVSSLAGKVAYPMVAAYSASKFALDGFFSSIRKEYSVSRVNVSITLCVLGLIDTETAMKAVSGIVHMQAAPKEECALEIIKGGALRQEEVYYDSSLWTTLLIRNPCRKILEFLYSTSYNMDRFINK
Test: Cellular in vitro 11β-HSD1 enzyme inhibition assay (SPA, HEK293/11β-HSD1 cells)
Type: cell-based
Details: read-out: IC50 for 11β-HSD1 (HEK293)
parameter.measured: IC50

- O=C(c1csc(-c2cn[nH]c2)c1)N1CCC(O)(c2c(F)cccc2Cl)CC1: ≤ 0.5 µM
- O=C(c1csc(-c2cn[nH]c2)c1)N1CCC(O)(c2ccc(Cl)c(Cl)c2)CC1: ≤ 0.5 µM
- O=C(c1csc(-c2cn[nH]c2)c1)N1CCC(O)(c2ccc(Cl)cc2)CC1: ≤ 0.5 µM
- O=C(c1csc(-c2cn[nH]c2)c1)N1CCC(c2ccc(F)cc2)CC1: 0.5 to 1 µM
- O=C(c1csc(-c2cn[nH]c2)c1)N1CCC(O)(c2ccc(F)cc2Cl)CC1: ≤ 0.5 µM
- O=C(c1csc(-c2cn[nH]c2)c1)N1CCC(O)(c2ccccc2)CC1: ≤ 0.5 µM
- O=C(c1csc(-c2cn[nH]c2)c1)N1CCC(O)(c2c(F)cccc2F)CC1: ≤ 0.5 µM
- O=C(c1csc(-c2cn[nH]c2)c1)N1CCC(O)(c2ccc(F)cc2)CC1: ≤ 0.5 µM
- O=C(c1csc(-c2cn[nH]c2)c1)N1CCC(c2ccc(F)cc2F)CC1: 0.5 to 1 µM
- O=C(c1csc(-c2cn[nH]c2)c1)N1CCC(c2cccc(F)c2)CC1: ≤ 0.5 µM
- O=C(c1csc(-c2cn[nH]c2)c1)N1CCC(O)(c2cc(F)ccc2Cl)CC1: ≤ 0.5 µM

From: patent US8642621B2
